TESTED_SYSTEM: hM5 (human Muscarinic receptor subtype 5) (Homo sapiens, UniProt P08912)
Construct: expressed in transfected cells; host or cells: CHO cells (Chinese hamster ovary cells, ATCC)
Sequence (P08912 whole entry): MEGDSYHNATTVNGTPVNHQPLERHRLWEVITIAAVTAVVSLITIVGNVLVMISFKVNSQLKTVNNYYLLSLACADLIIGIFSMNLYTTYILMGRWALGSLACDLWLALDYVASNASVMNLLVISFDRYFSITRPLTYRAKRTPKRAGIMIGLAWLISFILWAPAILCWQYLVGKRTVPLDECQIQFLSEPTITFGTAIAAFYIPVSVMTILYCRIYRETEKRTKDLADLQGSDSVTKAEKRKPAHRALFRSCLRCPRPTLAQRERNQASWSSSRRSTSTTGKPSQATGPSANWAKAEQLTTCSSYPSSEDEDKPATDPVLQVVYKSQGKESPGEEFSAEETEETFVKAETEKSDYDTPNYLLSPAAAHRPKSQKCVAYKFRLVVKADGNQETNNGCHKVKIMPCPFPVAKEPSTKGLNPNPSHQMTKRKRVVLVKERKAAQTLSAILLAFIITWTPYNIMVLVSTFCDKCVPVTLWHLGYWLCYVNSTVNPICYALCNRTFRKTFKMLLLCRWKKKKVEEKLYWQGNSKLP
METHOD_NOTES: Human M5 calcium mobilization FLIPR assay
Type: cell-based
RECORDED_CONDITIONS: hM5 expressed in CHO cells, intracellular Ca2+ release, read-out: hM5 EC50
pEC50: −log10 of the molar value.

[
  {
    "MOLECULE": "CCOC(=O)N1CCC(C)(N2CCC(n3c(=O)[nH]c4cc(F)c(C)cc43)CC2)C1 (single isomer, unassigned) [Example 55]",
    "CENSORING_QUALIFIER": "=",
    "pEC50": 5.74
  },
  {
    "MOLECULE": "CCOC(=O)N1CCC(C)(N2CCC(n3c(=O)[nH]c4ccc(F)cc43)CC2)C1 (single isomer, unassigned) [Example 50]",
    "CENSORING_QUALIFIER": "=",
    "pEC50": 5.45
  },
  {
    "MOLECULE": "CCOC(=O)N1CCC(C)(N2CCC(n3c(=O)[nH]c4ccccc43)CC2)C1 (stereo not shown)",
    "CENSORING_QUALIFIER": "=",
    "pEC50": 6.87
  },
  {
    "MOLECULE": "CCOC(=O)N1CCC(C)(N2CCC(N3C(=O)Cc4ccc(F)cc43)CC2)C1 (single isomer, unassigned) [Example 74]",
    "CENSORING_QUALIFIER": "<",
    "pEC50": 4.67
  },
  {
    "MOLECULE": "CCOC(=O)N1CCC(C)(N2CCC(N3C(=O)Cc4ccc(C)cc43)CC2)C1 (single isomer, unassigned)",
    "CENSORING_QUALIFIER": "=",
    "pEC50": 5.86
  },
  {
    "MOLECULE": "CCOC(=O)N1CCC(C)(N2CCC(N3C(=O)Cc4ccc(F)cc43)CC2)C1 (single isomer, unassigned) [Example 75]",
    "CENSORING_QUALIFIER": "<",
    "pEC50": 4.57
  },
  {
    "MOLECULE": "CCNC(=O)N1CCC(C)(N2CCC(n3c(=O)[nH]c4ccccc43)CC2)C1 (stereo not shown)",
    "CENSORING_QUALIFIER": "<",
    "pEC50": 5.53
  }
]

====

TESTED_SYSTEM: hM3 (human Muscarinic receptor subtype 3) (Homo sapiens)
Construct: expressed in transfected cells; host or cells: CHO cells (Chinese hamster ovary cells, ATCC)
Sequence (P20309 whole entry): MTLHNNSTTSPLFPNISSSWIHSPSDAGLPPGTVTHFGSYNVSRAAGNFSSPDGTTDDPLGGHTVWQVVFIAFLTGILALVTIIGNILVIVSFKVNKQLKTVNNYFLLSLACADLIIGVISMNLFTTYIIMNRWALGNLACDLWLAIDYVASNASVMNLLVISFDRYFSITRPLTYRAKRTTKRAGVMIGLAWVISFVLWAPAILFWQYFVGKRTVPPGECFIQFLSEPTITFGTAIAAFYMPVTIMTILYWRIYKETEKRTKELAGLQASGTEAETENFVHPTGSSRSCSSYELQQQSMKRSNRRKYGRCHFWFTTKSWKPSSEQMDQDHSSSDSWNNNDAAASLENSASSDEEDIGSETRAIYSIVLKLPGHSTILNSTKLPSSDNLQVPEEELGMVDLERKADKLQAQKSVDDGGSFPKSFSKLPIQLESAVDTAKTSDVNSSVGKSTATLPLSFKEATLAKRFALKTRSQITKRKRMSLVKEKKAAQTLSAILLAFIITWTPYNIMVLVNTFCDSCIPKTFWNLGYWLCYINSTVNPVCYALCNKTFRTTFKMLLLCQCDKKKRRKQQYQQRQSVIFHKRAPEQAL
METHOD_NOTES: Human M3 calcium mobilization FLIPR assay
Type: cell-based
RECORDED_CONDITIONS: hM3 EC50 (nM), hM3 expressed in CHO cells, intracellular Ca2+ release

[
  {
    "COMPOUND": "COC(=O)N1CCC(C)(N2CCC(N3C(=O)Cc4cc(F)c(C)cc43)CC2)C1 (single isomer, unassigned)",
    "EC50": "> 18400 nM"
  }
]

====

TESTED_SYSTEM: cloned human M4 receptor (human Muscarinic receptor subtype 4) (Homo sapiens)
Construct: purchased Perkin-Elmer RBHM4M; host or cells: Chinese hamster ovary cells (CHO) membranes
Sequence (P08173 whole entry): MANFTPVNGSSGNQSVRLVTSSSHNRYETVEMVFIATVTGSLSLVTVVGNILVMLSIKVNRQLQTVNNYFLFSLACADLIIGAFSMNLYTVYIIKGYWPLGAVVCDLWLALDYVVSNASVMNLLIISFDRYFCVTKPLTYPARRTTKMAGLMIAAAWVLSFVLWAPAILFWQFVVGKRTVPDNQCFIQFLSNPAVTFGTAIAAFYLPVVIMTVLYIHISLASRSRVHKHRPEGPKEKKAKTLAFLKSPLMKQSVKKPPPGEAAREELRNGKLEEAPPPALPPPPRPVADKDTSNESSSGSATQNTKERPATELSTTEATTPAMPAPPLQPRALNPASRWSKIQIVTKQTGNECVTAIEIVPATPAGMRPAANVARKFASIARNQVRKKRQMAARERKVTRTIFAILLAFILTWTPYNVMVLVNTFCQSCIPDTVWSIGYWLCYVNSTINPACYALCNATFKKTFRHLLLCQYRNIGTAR
METHOD_NOTES: hM4 receptor GTPγS binding
Type: biochemical
RECORDED_CONDITIONS: CHO cell membranes expressing hM4; [35S]GTPγS binding; read-out: hM4 EC50
MEASURED_PROPERTY: EC50 (nM)

[
  {
    "MOLECULE": "C#CCOC(=O)N1CCC(C)(N2CCC(n3c(=O)[nH]c4ccc(C)cc43)CC2)C1 (single isomer, unassigned) [Example 43]",
    "CENSORING_QUALIFIER": "=",
    "REPORTED_RESULT": 460
  },
  {
    "MOLECULE": "CCOC(=O)N1CCC(C)(N2CCC(n3c(=O)[nH]c4cc(F)c(C)cc43)CC2)C1 (single isomer, unassigned) [Example 56]",
    "CENSORING_QUALIFIER": "=",
    "REPORTED_RESULT": 238
  },
  {
    "MOLECULE": "Cc1ccc2[nH]c(=O)n(C3CCN(C4(C)CCN(C(=O)OC(C)C)C4)CC3)c2c1 (single isomer, unassigned) [Example 39]",
    "CENSORING_QUALIFIER": ">",
    "REPORTED_RESULT": 90000
  },
  {
    "MOLECULE": "Cc1ccc2c(c1)[nH]c(=O)n2C1CCN(C2(C)CCN(C(=O)OC(C)C)C2)CC1 (single isomer, unassigned) [Example 14]",
    "CENSORING_QUALIFIER": ">",
    "REPORTED_RESULT": 90000
  },
  {
    "MOLECULE": "CC#CCOC(=O)N1CCC(C)(N2CCC(n3c(=O)[nH]c4ccccc43)CC2)C1 (single isomer, unassigned) [Example 34]",
    "CENSORING_QUALIFIER": "=",
    "REPORTED_RESULT": 1670
  },
  {
    "MOLECULE": "C#CCOC(=O)N1CCC(C)(N2CCC(n3c(=O)[nH]c4cc(C)ccc43)CC2)C1 (single isomer, unassigned) [Example 44]",
    "CENSORING_QUALIFIER": "=",
    "REPORTED_RESULT": 107
  },
  {
    "MOLECULE": "CCOC(=O)N1CCC(C)(N2CCC(N3C(=O)Cc4ccc(C)cc43)CC2)C1 (single isomer, unassigned) [Example 69]",
    "CENSORING_QUALIFIER": "=",
    "REPORTED_RESULT": 8920
  },
  {
    "MOLECULE": "CCOC(=O)N1CCC(C)(N2CCC(N3C(=O)Cc4ccc(C)cc43)CC2)C1 (single isomer, unassigned) [Example 70]",
    "CENSORING_QUALIFIER": "=",
    "REPORTED_RESULT": 1770
  },
  {
    "MOLECULE": "C#CCOC(=O)N1CCC(C)(N2CCC(n3c(=O)[nH]c4cc(F)ccc43)CC2)C1 (single isomer, unassigned) [Example 25]",
    "CENSORING_QUALIFIER": "=",
    "REPORTED_RESULT": 684
  },
  {
    "MOLECULE": "COC(=O)N1CCC(C)(N2CCC(n3c(=O)[nH]c4cc(F)c(F)cc43)CC2)C1 (single isomer, unassigned) [Example 60]",
    "CENSORING_QUALIFIER": "=",
    "REPORTED_RESULT": 5080
  },
  {
    "MOLECULE": "COC(=O)N1CCC(C)(N2CCC(n3c(=O)[nH]c4cc(F)ccc43)CC2)C1 (stereo not shown) [Example 8]",
    "CENSORING_QUALIFIER": "=",
    "REPORTED_RESULT": 5210
  },
  {
    "MOLECULE": "CC#CCOC(=O)N1CCC(C)(N2CCC(n3c(=O)[nH]c4cc(F)ccc43)CC2)C1 (single isomer, unassigned) [Example 22]",
    "CENSORING_QUALIFIER": "=",
    "REPORTED_RESULT": 421
  },
  {
    "MOLECULE": "CC1(N2CCC(n3c(=O)[nH]c4ccc(F)cc43)CC2)CCN(C(=O)OCCF)C1 (single isomer, unassigned) [Example 53]",
    "CENSORING_QUALIFIER": "=",
    "REPORTED_RESULT": 5570
  }
]

====

Each entry below carries its reported EC50.
TESTED_SYSTEM: hM1 (human Muscarinic receptor subtype 1) (Homo sapiens, UniProt P11229)
Construct: expressed in transfected cells; host or cells: CHO cells (Chinese hamster ovary cells, ATCC)
Sequence (P11229 whole entry): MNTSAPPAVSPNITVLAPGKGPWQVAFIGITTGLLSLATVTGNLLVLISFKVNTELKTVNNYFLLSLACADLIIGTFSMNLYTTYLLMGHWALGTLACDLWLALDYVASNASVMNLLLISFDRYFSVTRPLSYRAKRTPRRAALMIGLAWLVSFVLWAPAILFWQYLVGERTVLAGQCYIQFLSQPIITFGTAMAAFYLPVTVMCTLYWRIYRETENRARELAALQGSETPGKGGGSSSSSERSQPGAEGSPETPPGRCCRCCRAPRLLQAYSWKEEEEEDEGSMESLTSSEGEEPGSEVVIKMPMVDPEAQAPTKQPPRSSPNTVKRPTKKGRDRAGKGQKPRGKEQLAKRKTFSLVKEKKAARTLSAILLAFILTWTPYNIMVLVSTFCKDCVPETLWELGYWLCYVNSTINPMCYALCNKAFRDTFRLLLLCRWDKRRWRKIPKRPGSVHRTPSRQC
METHOD_NOTES: Human M1 calcium mobilization FLIPR assay
Assay type: cell-based
RECORDED_CONDITIONS: hM1 expressed in CHO cells, intracellular Ca2+ release, read-out: hM1 EC50
MEASURED_PROPERTY: EC50 (nM)

[
  {
    "COMPOUND": "CCCOC(=O)N1CCC(C)(N2CCC(n3c(=O)[nH]c4ccc(F)cc43)CC2)C1 (single isomer, unassigned) [Example 64]",
    "CENSORING_QUALIFIER": "=",
    "REPORTED_RESULT": 80.1
  },
  {
    "COMPOUND": "CCOC(=O)N1CCC(C)(N2CCC(N3C(=O)Cc4cc(F)ccc43)CC2)C1 (single isomer, unassigned) [Example 79]",
    "CENSORING_QUALIFIER": "=",
    "REPORTED_RESULT": 9.2
  },
  {
    "COMPOUND": "CCOC(=O)N1CCC(C)(N2CCC(N3C(=O)Cc4ccc(C)cc43)CC2)C1 (single isomer, unassigned) [Example 70]",
    "CENSORING_QUALIFIER": "=",
    "REPORTED_RESULT": 9.8
  },
  {
    "COMPOUND": "CCOC(=O)N1CCC(C)(N2CCC(n3c(=O)[nH]c4cc(F)ccc43)CC2)C1 (single isomer, unassigned) [Example 6]",
    "CENSORING_QUALIFIER": "<",
    "REPORTED_RESULT": 1.4
  },
  {
    "COMPOUND": "CCOC(=O)N1CCC(C)(N2CCC(N3C(=O)Cc4ccc(F)cc43)CC2)C1 (single isomer, unassigned) [Example 75]",
    "CENSORING_QUALIFIER": "=",
    "REPORTED_RESULT": 47.5
  },
  {
    "COMPOUND": "CC1(N2CCC(n3c(=O)[nH]c4ccccc43)CC2)CCN(C(=O)OCCF)C1 (racemic) [Example 4]",
    "CENSORING_QUALIFIER": "=",
    "REPORTED_RESULT": 13.5
  },
  {
    "COMPOUND": "C#CCOC(=O)N1CCC(C)(N2CCC(n3c(=O)[nH]c4ccc(C)cc43)CC2)C1 (single isomer, unassigned) [Example 41]",
    "CENSORING_QUALIFIER": "=",
    "REPORTED_RESULT": 23.5
  }
]
